Experiment: folding enthalpy; higher = less favourable; fluorescence melt of hairpins on a sequencing array, two-state fit
Conditions: sodium 0.088 M
quantity-name: folding enthalpy

[[record]]
sequence_chain = "GGTCCCGGAAACGGAACC (((.(((....))).)))"
reading = "-36 kcal/mol"

[[record]]
sequence_chain = "GATCTACGGTTAGATC ((((((....))))))"
reading = "-30.3 kcal/mol"

[[record]]
sequence_chain = "GCAGCAGGAAACTGTTGC (((.(((....))).)))"
reading = "-52.3 kcal/mol"

[[record]]
sequence_chain = "GGAGAAGGAAACTCCTCC ((((.((....)).))))"
reading = "-22.6 kcal/mol"

[[record]]
sequence_chain = "GAGAACGAAAGTTCCTC ((((((....))).)))"
reading = "-14.2 kcal/mol"

[[record]]
sequence_chain = "GGCGGGCCGAAAGGCGCC (((..(((....))))))"
reading = "-13.2 kcal/mol"

[[record]]
sequence_chain = "GCTAACGAAAGTTCAAGC ((((((....)))..)))"
reading = "-12.5 kcal/mol"

[[record]]
sequence_chain = "GAAATACGAAAGTAATTC (((.(((....))).)))"
reading = "-15 kcal/mol"

[[record]]
sequence_chain = "GATCCCTTCTGGGATC ((((((....))))))"
reading = "-39.1 kcal/mol"

[[record]]
sequence_chain = "GCGGAAGGAAACCTCCGC (((((.(....).)))))"
reading = "-33.2 kcal/mol"

[[record]]
sequence_chain = "GTTCGACGAAAGTCAAAC (((.(((....))).)))"
reading = "-21.3 kcal/mol"

[[record]]
sequence_chain = "GATCCAGAGTGGATC ((((((...))))))"
reading = "-31.3 kcal/mol"


====

Test: melting temperature; fluorescence melt of hairpins on a sequencing array, two-state fit, raised by 9.35 °C to match UV melts
Conditions: sodium 0.088 M
Measured Tm, listed per entry.
quantity-name: Tm (°C)

[[record]]
sequence_chain = "GCTATACGAAAGTAGAGC (((.(((....))).)))"
reading = 53.4

[[record]]
sequence_chain = "GCTCCCGCGAAAGCGAGC (((..(((....))))))"
reading = 37.5

[[record]]
sequence_chain = "GCACAGGGAAACCTATGC (((.(((....))).)))"
reading = 37.1

[[record]]
sequence_chain = "GTTTGTCCGAAAGGAAAC (((..(((....))))))"
reading = 35.9

[[record]]
sequence_chain = "GACCTTGGAAACGAGGTC (((((.(....).)))))"
reading = 50.9

[[record]]
sequence_chain = "CGTCCCCGGAAACGGACG (((..(((....))))))"
reading = 42.2

[[record]]
sequence_chain = "GGATCGACGAAAGTCTCC (((..(((....))))))"
reading = 27.9

[[record]]
sequence_chain = "GTCAGCGAAAGCTGAGAC ((((((....)))..)))"
reading = 49

[[record]]
sequence_chain = "GCGCCTGGAAACAGGTGC ((.((((....)))).))"
reading = 64.2

[[record]]
sequence_chain = "GGCCGGCGAAAGCCGCC (((.(((....))))))"
reading = 65.3

[[record]]
sequence_chain = "GCCACGCGAAAGCAAGGC (((..((....))..)))"
reading = 57.2

[[record]]
sequence_chain = "GATCCAGGCGTGGATC ((((((....))))))"
reading = 53.6

[[record]]
sequence_chain = "GGGTCTGCGAAAGCACCC (((..(((....))))))"
reading = 44.2

[[record]]
sequence_chain = "GATCTAGGAAACTGGATC ((((.((....)).))))"
reading = 41.8

[[record]]
sequence_chain = "GTAAAGCGAAAGCTGTAC (((.(((....))).)))"
reading = 44.4

[[record]]
sequence_chain = "GTTCAGGGAAACTTGAGC (.(((.(....).))).)"
reading = 30.2

[[record]]
sequence_chain = "GATCTCATACGAGATC ((((((....))))))"
reading = 52.6

[[record]]
sequence_chain = "GCTTGCGGAAACGTAGGC ((.(.((....)).).))"
reading = 38.6

[[record]]
sequence_chain = "GATCGGGTGCCGATC ((((((...))))))"
reading = 55.2

[[record]]
sequence_chain = "GCCGACGGAAACGCCAGC ((.(.((....)).).))"
reading = 33.8

[[record]]
sequence_chain = "GTAAGACGAAAGTCATAC (((.(((....))).)))"
reading = 39.1

[[record]]
sequence_chain = "GGTTCGCCGAAAGGCACC (((..(((....))))))"
reading = 30.1

[[record]]
sequence_chain = "GTTCTGGGAAACCAAAAC (((.(((....))).)))"
reading = 26.5

[[record]]
sequence_chain = "GTTTTCCGAAAGGAAAC (((.(((....))))))"
reading = 47.8

[[record]]
sequence_chain = "GATCACTTGAGTGATC ((((((....))))))"
reading = 56.1


====

Test: folding enthalpy; higher = less favourable; fluorescence melt of hairpins on a sequencing array, two-state fit
Settings: sodium 0.088 M
Measured folding enthalpy, listed per entry.
quantity-name: folding enthalpy (kcal/mol)

[[record]]
sequence_chain = "GATCAGATTACTGATC ((((((....))))))"
quantity_name = "folding enthalpy"
reading = -30.3

[[record]]
sequence_chain = "GGAGGGGAAACCCTCC ((((((....))))))"
quantity_name = "folding enthalpy"
reading = -30.9

[[record]]
sequence_chain = "GGTTTGGGAAACCAAGCC ((.((((....)))).))"
quantity_name = "folding enthalpy"
reading = -33.5

[[record]]
sequence_chain = "GACGTCCGAAAGGAGTC (((.(((....))))))"
quantity_name = "folding enthalpy"
reading = -24

[[record]]
sequence_chain = "GAGAGCGAAAGCTCCTC ((((((....))).)))"
quantity_name = "folding enthalpy"
reading = -10.3

[[record]]
sequence_chain = "GATCAGCAACCTGATC ((((((....))))))"
quantity_name = "folding enthalpy"
reading = -33


====

Assay: melting temperature; fluorescence melt of hairpins on a sequencing array, two-state fit, raised by 9.35 °C to match UV melts
Settings: sodium 0.088 M
just bin them by Tm: low end = under 40 °C, middle = from 40 °C up to 50 °C, high end = 50 °C and over

[[record]]
sequence_chain = "GATCTTCCGGAAGATC ((((((....))))))"
class_label = "high end"

[[record]]
sequence_chain = "GTCTGAGGAAACTCAGAC (((((((....)))))))"
class_label = "high end"

[[record]]
sequence_chain = "GCCGTGGGAAACCATGGC (((.(((....))).)))"
class_label = "high end"

[[record]]
sequence_chain = "GATCGTAACTACGATC ((((((....))))))"
class_label = "high end"

[[record]]
sequence_chain = "GAAGGCGAAAGCCGTTC ((((((....))).)))"
class_label = "middle"

[[record]]
sequence_chain = "GGGTTCGAAAGAATGCCC ((((((....)))..)))"
class_label = "low end"

[[record]]
sequence_chain = "GCCTAACCGAAAGGTGGC (((..(((....))))))"
class_label = "high end"

[[record]]
sequence_chain = "GCCAAGGCGAAAGCCGGC (((..(((....))))))"
class_label = "high end"

[[record]]
sequence_chain = "GGCACAGAAATGTGCC ((((((....))))))"
class_label = "high end"

[[record]]
sequence_chain = "GGAATGCCGAAAGGCTCC (((..(((....))))))"
class_label = "low end"

[[record]]
sequence_chain = "GACGTTGGAAACAACATC ((.((((....)))).))"
class_label = "low end"

[[record]]
sequence_chain = "GAATGAGGAAACTCGTTC (((.(((....))).)))"
class_label = "middle"

[[record]]
sequence_chain = "GCAACAGGAAACTGCTGC (((.(((....))).)))"
class_label = "middle"

[[record]]
sequence_chain = "GCATAAACGAAAGTTTGC (((..(((....))))))"
class_label = "low end"

[[record]]
sequence_chain = "GGTGAGGCGAAAGCCACC (((..(((....))))))"
class_label = "high end"

[[record]]
sequence_chain = "GACAACCGAAAGGTGTC (((.(((....))))))"
class_label = "high end"

[[record]]
sequence_chain = "GGGAATGGAAACATTCTC (.(((((....))))).)"
class_label = "middle"

[[record]]
sequence_chain = "GGTTTTCGAAAGAACACC (((.(((....))).)))"
class_label = "middle"

